# system-tested: Glucocorticoid receptor (Homo sapiens) (UniProt P04150)
# Sequence (P04150 whole entry, looked up): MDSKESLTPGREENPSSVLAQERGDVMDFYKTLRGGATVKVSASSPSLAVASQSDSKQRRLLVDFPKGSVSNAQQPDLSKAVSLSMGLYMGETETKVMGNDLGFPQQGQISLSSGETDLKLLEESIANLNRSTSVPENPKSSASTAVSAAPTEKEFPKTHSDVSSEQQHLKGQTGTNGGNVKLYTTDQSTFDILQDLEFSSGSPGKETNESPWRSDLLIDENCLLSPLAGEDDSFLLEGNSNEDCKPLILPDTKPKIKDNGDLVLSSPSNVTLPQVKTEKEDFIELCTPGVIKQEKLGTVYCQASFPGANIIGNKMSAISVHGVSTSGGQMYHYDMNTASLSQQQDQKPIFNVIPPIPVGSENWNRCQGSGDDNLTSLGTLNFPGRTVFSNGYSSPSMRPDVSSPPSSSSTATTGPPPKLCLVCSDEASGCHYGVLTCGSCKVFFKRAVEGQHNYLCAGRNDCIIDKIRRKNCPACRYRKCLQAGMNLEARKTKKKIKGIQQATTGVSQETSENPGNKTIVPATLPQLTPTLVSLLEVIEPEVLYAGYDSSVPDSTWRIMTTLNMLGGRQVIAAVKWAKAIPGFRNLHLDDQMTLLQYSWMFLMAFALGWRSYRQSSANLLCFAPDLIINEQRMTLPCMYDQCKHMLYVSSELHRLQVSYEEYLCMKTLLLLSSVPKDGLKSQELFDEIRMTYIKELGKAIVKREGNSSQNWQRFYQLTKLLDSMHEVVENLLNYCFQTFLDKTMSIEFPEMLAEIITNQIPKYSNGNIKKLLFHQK
# experimental-protocol: ATG_GR_TRANS: Attagene TRANS-FACTORIAL HepG2 Assay for human Glucocorticoid Receptor (GR) (AID 2282978);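 note: activators score as hits since higher reporter transcript over DMSO is fitted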
# assay-setup: HepG2 Attagene TRANS GR reporter, mRNA transcription
Results filed as inconclusive are left out. Activity calls are given as the source filed them. Rule for the calls: active = hit-call score of the fitted dose curve at least 0.9, where 1 is the maximum; inconclusive = response in the unintended direction; inactive = score below 0.9.
measure-name: outcome

Examples with their reported outcome follow.
>  <molecule>
CCCCCCS

>  <outcome>
inactive

$$$$
>  <molecule>
OCCCC(F)(F)C(F)(F)C(F)(F)C(F)(F)C(F)(F)C(F)(F)C(F)(F)F

>  <outcome>
inactive

$$$$
>  <molecule>
c1ccc(-c2ccccc2-c2ccccc2)cc1

>  <outcome>
inactive

$$$$
>  <molecule>
CC(C)=CCCC(C)CCOC(=O)C(C)C (stereo not drawn)

>  <outcome>
inactive

$$$$
>  <molecule>
Cc1ccc(S(=O)(=O)NCl)cc1

>  <outcome>
inactive

$$$$

Return reported outcome; argument: CC(C)OC(=O)c1ccccc1C(=O)OC(C)C
inactive

What outcome value was documented for this molecule, CS(C)(=O)=O ?
inactive

What measured outcome goes with Cc1cccc(N(C)C)c1 ?
inactive

====

# experimental-protocol: ATG_CRE_CIS: Attagene CIS-FACTORIAL HepG2 Assay for human cAMP Responsive Element (CRE) binding protein 3 (AID 2282926)
# assay-setup: HepG2 CRE cis-reporter, Attagene multiplexed mRNA; actives raise or lower the signal
Activity calls are given as the source filed them. The calls were made as follows: active = hit-call score of the fitted dose curve at least 0.9, where 1 is the maximum; inactive = score below 0.9.
measure-name: outcome

Before answering, review these 5 worked examples.
>  <compound>
CC(C)c1ccccc1N

>  <result>
inactive

$$$$
>  <compound>
CC(CCl)OP(=O)(OC(C)CCl)OC(C)CCl (stereo not given)

>  <result>
inactive

$$$$
>  <compound>
FC(F)(I)C(F)(F)C(F)(F)C(F)(F)I

>  <result>
inactive

$$$$
>  <compound>
FC(F)(F)C(F)(F)C(F)(F)N(C(F)(F)C(F)(F)C(F)(F)F)C(F)(F)C(F)(F)C(F)(F)F

>  <result>
inactive

$$$$
>  <compound>
CC(C)(C)c1ccc(OC2CCCCC2O)cc1 (stereo not given)

>  <result>
inactive

$$$$

Can you look up the measured outcome of CCc1ccc(C(c2ccc(CC)cc2)C(Cl)Cl)cc1 for me?
inactive

Please report the recorded outcome for COC(=O)CCC(F)(F)C(F)(F)C(F)(F)C(F)(F)F .
inactive

Query: outcome; subject: N=C(N)C(F)(F)C(F)(F)C(F)(F)C(F)(F)C(F)(F)C(F)(F)C(F)(F)F
inactive

Quick one: outcome of FC(F)(F)C(F)(F)CNCC(F)(F)C(F)(F)F ?
inactive

Which outcome is reported for this compound? C#C[C@]1(O)CC[C@H]2[C@@H]3CCc4cc(OC)ccc4[C@H]3CC[C@@]21C
inactive

====

# experimental-protocol: ATG_M_06_CIS: Attagene CIS-FACTORIAL HepG2 Assay for M06 Transcription Factor (Internal Marker) (AID 2282950)
# assay-setup: HepG2 Attagene CIS-FACTORIAL M06 internal marker reporter; actives raise or lower the signal
Calls of active or inactive are those of the source. Rule for the calls: active = hit-call score of the fitted dose curve at least 0.9, where 1 is the maximum; inactive = score below 0.9.
measure-name: outcome

>  <compound>
O[Si](c1ccccc1)(c1ccccc1)c1ccccc1

>  <measure-name>
outcome

>  <result>
inactive

$$$$
>  <compound>
[Co]

>  <measure-name>
outcome

>  <result>
inactive

$$$$
>  <compound>
CCC(=O)OCCc1ccccc1

>  <measure-name>
outcome

>  <result>
inactive

$$$$
>  <compound>
CC(C)OC(=O)c1ccccc1C(=O)OC(C)C

>  <measure-name>
outcome

>  <result>
inactive

$$$$
>  <compound>
C(=C(c1ccccc1)c1ccccc1)c1ccccc1

>  <measure-name>
outcome

>  <result>
inactive

$$$$

Requested field: outcome. Item: CC(Cc1ccc(O)c(O)c1)C(C)Cc1ccc(O)c(O)c1 (configuration not stated)
inactive

// outcome lookup, key: O=C(O)C(F)(F)C(F)(F)OC(F)(F)F
inactive

Which value of outcome has been reported for COC(OC(C)=O)c1ccccc1 (configuration not stated) in the records?
inactive

Returns the measured outcome for the input compound. Input: C=CC(=O)OCC(F)(F)C(F)(F)C(F)(F)C(F)(F)COC(=O)C=C
inactive

State the recorded outcome for this entry: CCCCCCOC(=O)c1ccccc1O
inactive

Data request, read-out outcome, for O=C(O)C(F)(F)C(F)(F)C(F)F
inactive

Please report the recorded outcome for OCC(F)(F)C(F)(F)C(F)(F)F .
inactive

Any idea what outcome was measured for c1ccc(-c2ccccc2-c2ccccc2)cc1 ?
inactive

Given the compound O=C(O)C(F)(F)C(F)(F)C(F)(F)C(F)(F)F , what is its reported outcome?
inactive

Consider the compound shown here: OC[C@@H](O)[C@@H](O)[C@H](O)[C@@H](O)CO What is its recorded outcome?
inactive
